- study_system: serotonin 1A receptor (Rattus norvegicus)
- Sequence (P19327 1-422): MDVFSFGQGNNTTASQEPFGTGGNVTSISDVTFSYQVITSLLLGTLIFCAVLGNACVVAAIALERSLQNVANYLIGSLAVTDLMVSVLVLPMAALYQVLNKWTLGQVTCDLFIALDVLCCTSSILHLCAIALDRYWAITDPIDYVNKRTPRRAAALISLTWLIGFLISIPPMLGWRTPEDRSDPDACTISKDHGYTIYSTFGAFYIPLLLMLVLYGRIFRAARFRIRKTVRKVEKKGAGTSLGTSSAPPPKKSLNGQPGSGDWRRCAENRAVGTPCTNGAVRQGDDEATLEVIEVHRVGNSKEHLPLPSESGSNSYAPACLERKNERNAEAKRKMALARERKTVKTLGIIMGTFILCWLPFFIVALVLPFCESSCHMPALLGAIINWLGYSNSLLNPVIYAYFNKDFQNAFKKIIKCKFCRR
pKi: −log10 of the molar value. Where a name gives a salt, the structure may show the parent alone.
Parameter pKi: see the listing below.
quantity: pKi

O=C(Cc1ccc2ccn(C3CCN(CCc4ccc(F)cc4)CC3)c2c1)N1CCC(O)CC1 [Example 302]: 8.53
CNC(=O)NCc1ccc2ccn(C3CCN(CCc4ccc(F)cc4)CC3)c2c1 [Example 397]: 8.89
COc1ccc(C(=O)c2ccc3ccn(C4CCN(CCc5ccc(F)cc5)CC4)c3c2)cn1 [Example 317, Oxalate]: 9.12
Fc1ccc(CCN2CCC(N3CCc4ccc(-c5nccs5)cc43)CC2)cc1 [Example 172]: 9.92
CC(O)c1ccc2ccn(C3CCN(CCc4ccc(F)cc4)CC3)c2c1 (stereo not drawn) [Example 392, Oxalate]: 9.19
CS(=O)(=O)Nc1ccc2c(c1)N(C1CCN(CCc3ccc(F)cc3)CC1)CC2 [Example 116]: 9.30
N#CCc1ccc2c(c1)N(C1CCN(CCc3ccc(F)cc3)CC1)CC2 [Example 145]: 8.09
N#Cc1ccc(CCN2CCC(N3CCc4ccccc43)CC2)cn1 [Example 54]: 8.15
Fc1ccc(CCN2CCC(N3CCc4ccccc43)CC2)cc1F [Example 11]: 8.24

====

- study_system: serotonin 1A receptor (Rattus norvegicus)
- Construct: To the receptor fraction of the hippocampus were added a test compound and 0.5 nM of [^3H]; 8-hydroxy-dipropylaminotetralin; from tissue; host or cells: SD rat hippocampus, membrane (receptor) fraction
- Sequence (P19327 1-422): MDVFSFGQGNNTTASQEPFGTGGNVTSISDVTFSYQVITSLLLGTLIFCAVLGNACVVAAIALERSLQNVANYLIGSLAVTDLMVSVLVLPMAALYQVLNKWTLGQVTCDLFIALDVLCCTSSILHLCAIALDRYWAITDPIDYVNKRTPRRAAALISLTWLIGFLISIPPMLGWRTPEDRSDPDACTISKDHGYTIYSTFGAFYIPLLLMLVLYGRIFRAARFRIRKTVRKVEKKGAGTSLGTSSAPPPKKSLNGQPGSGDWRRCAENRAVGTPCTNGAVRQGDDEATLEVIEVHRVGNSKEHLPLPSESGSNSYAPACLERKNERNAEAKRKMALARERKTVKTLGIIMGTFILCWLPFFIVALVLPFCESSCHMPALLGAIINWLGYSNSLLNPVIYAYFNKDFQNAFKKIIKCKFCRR
- measurement_notes: Binding test on [3H] 8-hydroxy-dipropylaminotetralin (serotonin 1A receptor)
- experimental_setup: [3H] 8-OH-DPAT 0.5 nM, receptor fraction of rat hippocampus; read-out: 5HT1a
pKi: −log10 of the molar value. Where a name gives a salt, the structure may show the parent alone.
quantity: pKi

CC(C)Nc1ccc2c(c1)N(C1CCN(CCc3ccc(F)cc3)CC1)CC2 [Example 113]: 7.86
CC(O)c1ccc2c(c1)N(C1CCN(CCc3ccc(F)cc3)CC1)CC2 (stereo not drawn) [Example 137]: 9.19
Cn1cccc1-c1ccc2ccn(C3CCN(CCc4ccc(F)cc4)CC3)c2c1 [Example 287]: 10.00
CC1CC(=C2CCN(CCc3ccc(F)cc3)CC2)c2nccnc21 (stereo not drawn) [Example 265]: 7.60
O=C(Cc1ccc2ccn(C3CCN(CCc4ccc(F)cc4)CC3)c2c1)NCCF [Example 310]: 8.87
CC(=O)NCc1ccc2c(Cl)cn(C3CCN(CCc4ccc(F)cc4)CC3)c2c1 [Example 328]: 8.69
COc1ccc(CCN2CCC(N3CCc4ccccc43)CC2)cn1 [Example 52]: 8.60
CN(C)Cc1ccc2c(c1)N(C1CCN(CCc3ccc(F)cc3)CC1)CC2 [Example 200]: 8.32
COc1ccc2c(c1)N(C1CCN(CCc3ccc4ncsc4c3)CC1)CC2 [Example 233]: 9.22
COc1ccc(CCN2CCC(N3CCc4ccc(F)cc43)CC2)cc1 [Example 229]: 8.60
COc1ccc(CCN2CCC(C3CCc4ccccc43)CC2)cc1 (stereo not drawn) [Example 249]: 8.68
Fc1ccc(CCN2CCC(N3CCc4ccc(Cl)cc43)CC2)cc1 [Example 102]: 8.57
Fc1ccc(CCN2CCC(N3CCc4ccc(-c5ccc(F)cc5)cc43)CC2)cc1 [Example 201]: 8.15
OCc1ccc(CCN2CCC(N3CCc4ccccc43)CC2)cc1 [Example 23]: 8.13
c1ccc2c(c1)CCN2C1CCN(CCc2cnccn2)CC1 [Example 67]: 6.58
O=C(Cc1ccc2ccn(C3CCN(CCc4ccc(F)cc4)CC3)c2c1)NCC(O)CO (stereo not drawn) [Example 340, Oxalate]: 8.52
CC(=O)NCc1ccc2ccn(C3CCN(CCc4ccccc4F)CC3)c2c1 [Example 352]: 8.80
CC(C)C(=O)NCc1ccc2c(c1)N(C1CCN(CCc3ccc(F)cc3)CC1)CC2 [Example 158]: 8.09
NC(=O)Cc1ccc2c(c1)N(C1CCN(CCc3ccc(F)cc3F)CC1)CC2 [Example 225]: 8.24
CC(=O)N(C)Cc1ccc2ccn(C3CCN(CCc4ccc(F)cc4)CC3)c2c1 [Example 359]: 9.15
OCCOc1ccc(CCN2CCC(N3CCc4ccccc43)CC2)cc1 [Example 26]: 8.54
CN(C)C(=O)Cc1ccc2ccn(C3CCN(CCc4ccc(F)cc4)CC3)c2c1.O=C(O)C(=O)O [Example 301, Oxalate]: 9.10
COc1ccc(CCN2CCC(N3CCc4ccc(Cl)nc43)CC2)cc1 [Example 263]: 9.34
Nc1ccc2c(c1)N(C1CCN(CCc3ccc(F)cc3)CC1)CC2 [Example 110]: 7.63

Every entry's value here was drawn from patent US6579881B2.
